target-entity: Follistatin-related protein 3 (Homo sapiens) (UniProt O95633)
Sequence (O95633 whole entry, looked up): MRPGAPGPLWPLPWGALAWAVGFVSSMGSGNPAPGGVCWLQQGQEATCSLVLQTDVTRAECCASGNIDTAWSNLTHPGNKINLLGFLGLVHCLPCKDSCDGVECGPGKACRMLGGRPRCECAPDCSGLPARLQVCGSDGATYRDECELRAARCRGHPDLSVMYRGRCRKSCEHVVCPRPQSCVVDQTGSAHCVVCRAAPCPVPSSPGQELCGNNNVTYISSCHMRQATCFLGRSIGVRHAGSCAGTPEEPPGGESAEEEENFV
assay-remarks: FSTL3 binders on small-molecule microarrays, primary screen, biochemical, small-molecule microarray, 635 nm fluorescence (AID 1105);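 note: score merges emission near 667 nm and signal to noise per printed spot across three slides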
experimental-context: FSTL3 binding, higher = more signal
List of composite z-score values.

Previously resolved entries follow.
| compound | measured |
| --- | --- |
| O=C1C2=CC[C@H]3C(=O)N(c4ccc(F)cc4F)C(=O)[C@H]3[C@H]2[C@H](O)[C@@H]2O[C@H]12 | 0.453 |
| COc1ccc(COC(=O)NN=C2C[C@@H](O)[C@@H](O)[C@@H]3[C@@H]4C(=O)N(C5CCCCC5)C(=O)[C@@H]4CC[C@@H]23)cc1 | -0.248 |
| CCOC(=O)NN=C1C[C@@H](O)[C@@H](O)[C@@H]2[C@@H]3C(=O)N(c4ccc(F)cc4F)C(=O)[C@@H]3CC[C@H]12 | 0.438 |

# context switch: different compound, same composite z-score
Fill blank: measured composite z-score of the compound CCOC(=O)[C@H](Cc1ccccc1)NC(=O)CCC1CC(OC(=O)NCc2cccc3ccccc23)CC2(CCCC(COC(=O)NCCc3ccccc3OC)O2)O1 (some centres undefined) is ____.
1.07

====

List of z-score values.
assay-remarks: Plasmodium falciparum growth inhibition, primary screen, strain 3D7, DAPI fluorescence, 100 nL (AID 1184);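 note: parasites grown inside human red blood cells in medium with human serum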
experimental-context: P. falciparum 3D7 growth, 3 d, higher = more signal

Previously resolved entries follow.
| smiles-string | z-score |
| --- | --- |
| CON=C(C)CCC(=O)OC[C@H]1O[C@H](C#Cc2ccccc2)C=C[C@@H]1Oc1ccc(C)cc1 | -0.306 |
| C[C@H]1CC[C@@H](C(=O)O)N[C@@H]1c1ccc(C#Cc2ccccc2)cc1 | -1.61 |
| O=C1[C@H]2[C@H]3[C@H](O)[C@H](O)CC(=NO[C@@H]4O[C@H](CO)[C@@H](O)[C@H](O)[C@H]4O)[C@H]3CC[C@H]2C(=O)N1C[C@@H]1CCCO1 | 0.656 |

# context switch: different compound, same z-score
Fill blank: measured z-score of the compound CON(C)C(=O)c1nnc2c(n1)[nH]c1ccccc12 is ____.
0.763

====

Test system: XIP peptide (Xip251-270)
assay-remarks: small-molecule binders of XIP peptide, primary screen, biochemical, small-molecule microarray, fluorescence 635/667 nm, 0.5 µg/mL protein (AID 1183)
experimental-context: small-molecule microarray binding, fluorescence 635 nm; higher = more signal
List of composite z-score values.
The response must contain the number and no unit.

Previously resolved entries follow.
| smiles-string | target-entity | measured |
| --- | --- | --- |
| CCCNC(=O)OC[C@H]1O[C@H](CCON=C2C[C@@H](O)[C@@H](O)[C@@H]3[C@@H]4C(=O)N(CC)C(=O)[C@@H]4CC[C@@H]23)C=C[C@@H]1Oc1ccc(OC)cc1 | XIP peptide (Xip251-270) | 0.696 |
| CCOC(=O)CCN1C(=O)[C@H]2[C@H]3[C@H](O)[C@H](O)CC(=NNC(=O)OCC)[C@H]3CC[C@H]2C1=O | XIP peptide (Xip251-270) | -0.397 |
| CC(C)CN1CCc2nc(-c3ccccc3)c3c(c2C1)CO[C@@H](C)C3 | XIP peptide (Xip251-270) | 0.687 |
| CCOC(=O)CCN1C(=O)[C@H]2[C@@H]3C(=CC[C@H]2C1=O)C(=O)[C@H]1O[C@H]1[C@H]3O | XIP peptide (Xip251-270) | -0.465 |
| COc1ccc(COC(=O)NN=C2C[C@@H](O)[C@@H](O)[C@@H]3[C@@H]4C(=O)N(Cc5ccccc5)C(=O)[C@@H]4CC[C@@H]23)cc1 | XIP peptide (Xip251-270) | 0.0404 |
| COc1ccc(COC(=O)NN=C2C[C@@H](O)[C@@H](O)[C@@H]3[C@@H]4C(=O)N(C(C)(C)C)C(=O)[C@@H]4CC[C@@H]23)cc1 | XIP peptide (Xip251-270) | 0.48 |

Fill blank: measured composite z-score of the compound CCOC(=O)CCN1C(=O)[C@H]2[C@H]3[C@H](O)[C@H](O)CC(=NO[C@@H]4O[C@H](CO)[C@@H](O)[C@H](O)[C@H]4O)[C@H]3CC[C@H]2C1=O is ____.
0.405
